biological target: human PCSK9 / human LDLR EGFa domain interaction (Homo sapiens (Human), UniProt Q8NBP7); experiment: TR-FRET assay of inhibition of the PCSK9-LDLR protein-protein interaction; type: binding; settings: TR-FRET, 20 nM human PCSK9, 20 nM human LDLR EGFa domain, 2 hours room temperature; read-out: IC50
Sequence (Q8NBP7 153-692): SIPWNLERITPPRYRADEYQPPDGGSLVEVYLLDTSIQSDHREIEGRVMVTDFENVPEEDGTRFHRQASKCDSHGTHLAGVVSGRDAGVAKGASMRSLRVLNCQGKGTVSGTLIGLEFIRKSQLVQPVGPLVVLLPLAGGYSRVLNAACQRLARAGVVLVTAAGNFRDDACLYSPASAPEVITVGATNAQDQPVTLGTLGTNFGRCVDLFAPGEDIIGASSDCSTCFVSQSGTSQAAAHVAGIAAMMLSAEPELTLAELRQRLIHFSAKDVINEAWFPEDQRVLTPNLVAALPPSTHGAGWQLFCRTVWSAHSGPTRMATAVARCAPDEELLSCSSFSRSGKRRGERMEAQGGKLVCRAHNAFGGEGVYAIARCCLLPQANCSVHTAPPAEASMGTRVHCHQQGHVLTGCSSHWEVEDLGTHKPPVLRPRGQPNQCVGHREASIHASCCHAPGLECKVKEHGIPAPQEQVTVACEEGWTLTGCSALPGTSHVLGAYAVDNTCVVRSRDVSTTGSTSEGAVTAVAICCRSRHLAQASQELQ
Sequence (Q8NBP7 31-152 partner): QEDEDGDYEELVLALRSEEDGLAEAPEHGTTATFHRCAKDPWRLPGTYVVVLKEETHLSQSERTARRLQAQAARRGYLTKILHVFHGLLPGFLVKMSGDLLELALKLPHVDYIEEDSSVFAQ
pIC50: −log10 of the molar value. Starred links: 1 amine or outer side, 2 acyl side, 3 side chain; linkers in the order of their positions; H or OH if unused. Positions of bridges follow the written chain, without caps; N, C: chain ends. Non-standard residues stand in square brackets, D forms with d. Residues, ends and D or L forms follow the SMILES beside them. Phe(4-COOH) = N[C@@H](Cc1ccc(C(=O)O)cc1)C(=O)O; Trp(5-F) = N[C@@H](Cc1c[nH]c2ccc(F)cc12)C(=O)O; Asp(3,3-Me2) = CC(C)(C(=O)O)[C@H](N)C(=O)O; X13 = O=C(CCCCc1cccc(CCCCN[*:1])c1)[*:2]; mXylylene = c1cc(C[*:1])cc(C[*:2])c1; αMeP = C[C@@]1(C(=O)O)CCCN1; Orn = NCCC[C@H](N)C(=O)O; Mpa = O=C(O)CCS
compounds and their reported pIC50

Previously resolved entries follow.
compound: C[C@@]12CCCN1C(=O)[C@H](Cc1ccc(O)cc1)NC(=O)[C@H](Cc1cnc[nH]1)NC(=O)[C@H](CC(=O)O)NC(=O)[C@H](Cc1c[nH]c3ccc(F)cc13)NC(=O)[C@H](Cc1c[nH]c3ccc(F)cc13)NC(=O)CNC(=O)[C@H](CCCN)NC(=O)CCSCc1cccc(c1)CSC[C@@H](C(N)=O)NC2=O [Compound 248] ([Mpa][Orn]G[Trp(5-F)][Trp(5-F)]DHY[αMeP]C-NH2; linker 1-10 via mXylylene)
target entity: human PCSK9 / human LDLR EGFa domain interaction (Homo sapiens (Human), UniProt Q8NBP7)
pIC50: 7.00 to 10.00

compound: CC(=O)N[C@@H]1CCCCNC(=O)c2ccc(cc2)C[C@@H](C(N)=O)NC(=O)[C@]2(C)CCCN2C(=O)[C@H](Cc2ccc(O)cc2)NC(=O)[C@H](Cc2cnc[nH]2)NC(=O)[C@H](CC(=O)O)NC(=O)[C@H](Cc2c[nH]c3ccc(F)cc23)NC(=O)[C@H](Cc2c[nH]c3ccc(F)cc23)NC(=O)CNC1=O [Compound 255] (Ac-[dK]G[Trp(5-F)][Trp(5-F)]DHY[αMeP][Phe(4-COOH)]-NH2; lactam 1-9)
target entity: human PCSK9 / human LDLR EGFa domain interaction (Homo sapiens (Human), UniProt Q8NBP7)
pIC50: 6.00 to 7.00

compound: COc1ccc(C[C@@H]2NC(=O)[C@H]([C@@H](C)O)NC(=O)[C@@H]3CCCN3C(=O)[C@H](Cc3c[nH]c4ccc(F)cc34)NC(=O)[C@H](Cc3c[nH]c4ccc(F)cc34)NC(=O)[C@@H](C)NC(=O)[C@H](C)NC(=O)CCCCc3cccc(c3)CCCCNC(=O)[C@@H]3CCCN3C2=O)cc1 [Compound 047] (cyclo(A[dA][Trp(5-F)][Trp(5-F)]PTY(Me)P[X13]))
target entity: human PCSK9 / human LDLR EGFa domain interaction (Homo sapiens (Human), UniProt Q8NBP7)
pIC50: 6.00 to 7.00

compound: C[C@H]1NC(=O)[C@H](CCCCN)NC(=O)CCSCc2cccc(c2)CSC[C@@H](C(N)=O)NC(=O)[C@]2(C)CCCN2C(=O)[C@H](Cc2ccc(O)cc2)NC(=O)[C@H](Cc2cnc[nH]2)NC(=O)[C@H](C(C)(C)C(=O)O)NC(=O)[C@H](Cc2c[nH]c3ccc(F)cc23)NC(=O)[C@H](Cc2c[nH]c3ccc(F)cc23)NC1=O [Compound 361] ([Mpa]K[dA][Trp(5-F)][Trp(5-F)][Asp(3,3-Me2)]HY[αMeP]C-NH2; linker 1-10 via mXylylene)
target entity: human PCSK9 / human LDLR EGFa domain interaction (Homo sapiens (Human), UniProt Q8NBP7)
pIC50: 7.00 to 10.00

Kindly consider the entry below.
Any idea what pIC50 was measured for CC(=O)N[C@H]1CSCc2cccc(c2)CSC[C@@H](C(N)=O)NC(=O)[C@@H]2CCCN2C(=O)[C@H](Cc2ccc(O)cc2)NC(=O)[C@H](Cc2c[nH]cn2)NC(=O)[C@H](CC(=O)O)NC(=O)[C@H](Cc2c[nH]c3ccc(F)cc23)NC(=O)[C@H](Cc2c[nH]c3ccccc23)NC(=O)CNC(=O)[C@H](CCCCN)NC1=O [Compound 176] (Ac-CKGW[Trp(5-F)]DHYPC-NH2; linker 1-10 via mXylylene) ?
4.30 to 4.68
